Target: MRGPRX4 (Homo sapiens)
Assay: MRGPRX4 activation, Fluo-8 Ca2+ FLIPR assay in HEK293T cells stably expressing MRGPRX4
Format: cell-based
Set-up: key: fluorescence change dF/F0
Conditions: E3-7, Conc. (Log[M]) −6
endpoint_label: MRGPRX4 activation, Ave.
No unit in the answer, please; the number alone is enough.

{"columns": ["compound", "MRGPRX4 activation, Ave."],
 "data": [
  ["CC[C@H]1[C@@H](O)[C@@H]2[C@H](CC[C@]3(C)[C@@H]([C@H](C)CCNC(=O)NS(=O)(=O)c4cc(F)ccc4F)CC[C@@H]23)[C@@]2(C)CCCC[C@@H]12", "−0.041"],
  ["[2H]C1([2H])CC[C@@]2(C)[C@@H](C1)[C@@H](CC)[C@@H](O)[C@@H]1[C@@H]2CC[C@]2(C)[C@@H]([C@H](C)CCNC(=O)NS(=O)(=O)c3ccc(C(C)(C)CF)cc3)CC[C@@H]12", "−0.041"],
  ["CC[C@H]1[C@@H](O)[C@@H]2[C@H](CC[C@]3(C)[C@@H]([C@H](C)CCNC(=O)C(=O)NS(=O)(=O)c4cc(F)cc(F)c4)CC[C@@H]23)[C@@]2(C)CCCC[C@@H]12", 0.000]
]}

Query compound follows.
Data request: // lookup MRGPRX4 activation, Ave. for [2H]C1CC[C@@]2(C)[C@@H](C1)[C@@H](CC)[C@@H](O)[C@@H]1[C@@H]2CC[C@]2(C)[C@@H]([C@H](C)CCNC(=O)NS(=O)(=O)c3ccc(C(C)(C)CF)cc3)CC[C@@H]12 (stereo partly shown)
Data returned: −0.027

----------
Biological target: MRGPRX4 (Homo sapiens)
Experiment: MRGPRX4 activation, Fluo-8 Ca2+ FLIPR assay in HEK293T cells stably expressing MRGPRX4
Assay type: cell-based
Design: key: fluorescence change dF/F0
Settings: E3-9, Conc. (Log[M]) −4.0
Protocol: In some embodiments, cells were cultured in poly-D-Lys coated blacked walled, clear-bottom 96-well microplates. […] The concentration of solution should be determined according to the protocol settings and experimental needs (e.g., Log[M]=−4, −5, −6, −7, −8, and −9). […] A fluorescent signal baseline was measured using FLIPR®Tetra for 30 s. […] The fluorescent signal would be measured for another 150 s. Activity of each compound was calculated by the fluorescence change (dF/F0). […]
Listing of entries alongside the reported MRGPRX4 activation, Average.
The reply should be a number, written without any unit.

{"columns": ["smiles", "MRGPRX4 activation, Average"],
 "data": [
  ["CC[C@H]1[C@@H](O)[C@@H]2[C@H](CC[C@]3(C)[C@@H]([C@H](C)CCNS(=O)(=O)C[C@]45CC[C@H](CC4=O)C5(C)C)CC[C@@H]23)[C@@]2(C)CCCC[C@@H]12", 0.016],
  ["CC[C@H]1[C@@H](O)[C@@H]2[C@H](CC[C@]3(C)[C@@H]([C@H](C)CCC(=O)O)CC[C@@H]23)[C@@]2(C)CCC(F)(F)C[C@@H]12", 0.006]
]}

Data request: For the compound shown here, CC[C@H]1[C@@H](O)[C@@H]2[C@H](CC[C@]3(C)[C@@H]([C@H](C)CCN=C=S)CC[C@@H]23)[C@@]2(C)CCC(F)(F)C[C@@H]12 , give the reported MRGPRX4 activation, Average.
Data returned: 0.030

Data request: Also CC[C@H]1[C@@H](O)[C@@H]2[C@H](CC[C@]3(C)[C@@H]([C@H](C)CCNC(=O)NS(=O)(=O)c4ccc(Br)cc4OC(F)(F)F)CC[C@@H]23)[C@@]2(C)CC[C@H](F)C[C@@H]12 , if possible.
Data returned: 0.021

----------
Target: UniProt:Q96RI1
Sequence (Q96RI1 1-476 isoform Q96RI1-1): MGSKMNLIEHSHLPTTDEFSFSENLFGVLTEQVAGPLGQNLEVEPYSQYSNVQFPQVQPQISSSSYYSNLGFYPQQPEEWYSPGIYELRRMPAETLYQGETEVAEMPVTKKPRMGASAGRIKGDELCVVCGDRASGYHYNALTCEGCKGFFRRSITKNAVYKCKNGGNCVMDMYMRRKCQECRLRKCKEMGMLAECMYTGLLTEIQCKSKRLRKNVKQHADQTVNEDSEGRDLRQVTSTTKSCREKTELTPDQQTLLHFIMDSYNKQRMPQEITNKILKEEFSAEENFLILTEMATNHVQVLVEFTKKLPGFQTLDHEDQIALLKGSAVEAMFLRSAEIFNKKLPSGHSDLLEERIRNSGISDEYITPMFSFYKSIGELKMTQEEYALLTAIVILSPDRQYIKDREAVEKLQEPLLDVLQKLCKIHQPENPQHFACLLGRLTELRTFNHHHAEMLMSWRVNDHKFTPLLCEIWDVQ
Assay: Human FXR (NR1H4) agonist assessment, FXRE-NanoLuc reporter in HEK293T cells
Type: cell-based
Settings: FXR activation, HEK293T FXRE-NanoLuc reporter, 24 hr
endpoint_label: Efficacy (maximum measured induction of NanoLuc, normalized to CDCA set as 100%)

Sample records with Efficacy (maximum measured induction of NanoLuc, normalized to CDCA set as 100%):
{"columns": ["smiles", "result_value"],
 "data": [
  ["CC[C@H]1[C@@H](O)[C@@H]2[C@H](CC[C@]3(C)[C@@H]([C@H](C)CCNC(=O)NS(=O)(=O)c4ccc(C(C)(C)C(=O)OC)cc4)CC[C@@H]23)[C@@]2(C)CCCC[C@@H]12", "B (300%<efficacy <=400%)"],
  ["CC[C@H]1[C@@H](O)[C@@H]2[C@H](CC[C@]3(C)[C@@H]([C@H](C)CCNC(=O)NS(=O)(=O)c4ccc(C(C)(C)C)cc4)CC[C@@H]23)[C@@]2(C)CCCC[C@@H]12", "B (300%<efficacy <=400%)"],
  ["CC[C@H]1[C@@H](O)[C@@H]2[C@H](CC[C@]3(C)[C@@H]([C@H](C)CCNC(=O)C(=O)O)CC[C@@H]23)[C@@]2(C)CCCC[C@@H]12", "B (300%<efficacy <=400%)"],
  ["CC[C@H]1[C@@H](O)[C@@H]2[C@H](CC[C@]3(C)[C@@H]([C@H](C)CCNC(=O)NS(=O)(=O)c4ccc(C5(CO)CCCC5)cc4)CC[C@@H]23)[C@@]2(C)CCCC[C@@H]12", "C (100%<efficacy <=300%)"]
]}

Data request: Name the recorded Efficacy (maximum measured induction of NanoLuc, normalized to CDCA set as 100%) for CC[C@H]1[C@@H](O)[C@@H]2[C@H](CC[C@]3(C)[C@@H]([C@H](C)CCNC(=O)C(=O)NS(=O)(=O)c4ccc(C(C)(C)CF)cc4)CC[C@@H]23)[C@@]2(C)CCCC[C@@H]12 .
Data returned: C (100%<efficacy <=300%)

Data request: Now the molecule CC[C@H]1[C@@H](O)[C@@H]2[C@H](CC[C@]3(C)[C@@H]([C@H](C)CCNC(=O)NS(=O)(=O)c4ccc(C(C)(C)C#N)cc4)CC[C@@H]23)[C@@]2(C)CCCC[C@@H]12
Data returned: C (100%<efficacy <=300%)

----------
Listing: MRGPRX4 activation, fluorescence change (dF/F0), Average of selected compounds
Target: MRGPRX4 (Homo sapiens, UniProt Q96LA9)
Sequence (Q96LA9 whole entry): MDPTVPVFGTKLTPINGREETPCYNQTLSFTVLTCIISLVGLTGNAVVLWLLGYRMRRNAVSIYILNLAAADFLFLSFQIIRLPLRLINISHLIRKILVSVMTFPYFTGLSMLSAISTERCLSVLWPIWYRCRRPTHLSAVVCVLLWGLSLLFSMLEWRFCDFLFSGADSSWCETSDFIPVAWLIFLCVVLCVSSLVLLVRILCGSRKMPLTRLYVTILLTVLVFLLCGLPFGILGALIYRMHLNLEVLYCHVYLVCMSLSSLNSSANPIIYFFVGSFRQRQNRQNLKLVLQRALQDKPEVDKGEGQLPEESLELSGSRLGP
Assay: MRGPRX4 activation, Fluo-8 Ca2+ FLIPR assay in HEK293T cells stably expressing MRGPRX4
Assay type: cell-based
Conditions: Conc. (Log[M]) −7
// no unit string in output, number only

// known answers, use as guide
{"columns": ["smiles", "result_value"],
 "data": [
  ["C[C@H](CC/C=C/C(=O)O)[C@H]1CC[C@H]2[C@@H]3CC[C@@H]4C[C@H](O)CC[C@]4(C)[C@H]3C[C@H](O)[C@]12C", 0.007],
  ["C[C@H](CCC(=O)O)[C@H]1CC[C@H]2[C@@H]3CC[C@@H]4C[C@@H](O)CC[C@]4(C)[C@H]3C[C@H](O)[C@]12C", "−0.017"],
  ["COC(=O)CC[C@@H](C)[C@H]1CC[C@H]2[C@@H]3/C(=N\\OC(C)(C)C(=O)O)C[C@@H]4C[C@H](OC(C)=O)CC[C@]4(C)[C@H]3CC[C@]12C", 0.018]
]}

Data request: Data request, read-out MRGPRX4 activation, fluorescence change (dF/F0), Average, for CC[C@H]1[C@@H](O)[C@@H]2[C@H](CC[C@]3(C)[C@@H]([C@H](C)CO)CC[C@@H]23)[C@@]2(C)CCCC[C@@H]12
Data returned: −0.023

Data request: Again, but for CC[C@H]1[C@@H](O)[C@@H]2[C@H](CC[C@]3(C)[C@@H]([C@H](C)CCNC(=O)NS(=O)(=O)c4ccc5c(c4)OCO5)CC[C@@H]23)[C@@]2(C)CCCC[C@@H]12
Data returned: 0.010

Data request: And the next one, CC[C@H]1[C@@H](OC(=O)c2cccc(I)c2)[C@@H]2[C@H](CC[C@]3(C)C([C@H](C)CCC(=O)OC)=CC[C@@H]23)[C@@]2(C)CCCC[C@@H]12 ?
Data returned: 0.005

----------
Biological target: MRGPRX4 (Homo sapiens, UniProt Q96LA9)
Experiment: MRGPRX4 activation, Fluo-8 Ca2+ FLIPR assay in HEK293T cells stably expressing MRGPRX4
Type: cell-based
Listed next: entries and their corresponding EC50.

{"columns": ["compound", "EC50"],
 "data": [
  ["CC[C@H]1[C@@H](O)[C@@H]2[C@H](CC[C@]3(C)[C@@H]([C@H](C)CCN=C=S)CC[C@@H]23)[C@@]2(C)CCCC[C@@H]12 [7-1]", "> 100 µM"],
  ["C[C@H](CCC(=O)O)[C@H]1CC[C@H]2[C@@H]3CC[C@@H]4CC(=O)CC[C@]4(C)[C@H]3CC[C@]12C [compound 16]", "< 50 µM"],
  ["[2H]C1([2H])CC[C@@]2(C)[C@@H](C1)[C@@H](CC)[C@@H](O)[C@@H]1[C@@H]2CC[C@]2(C)[C@@H]([C@H](C)CCN=C=S)CC[C@@H]12 [14-2]", "> 100 µM"]
]}

# next compound below
Data request: Please look up its EC50: CC[C@H]1[C@@H](O)[C@@H]2[C@H](CC[C@]3(C)[C@@H]([C@H](C)CCN=C=S)CC[C@@H]23)[C@@]2(C)CCC(F)(F)C[C@@H]12 [11-2]
Data returned: > 100 µM
